- tgt: Protein cereblon/Histone-lysine N-methyltransferase EZH2 (Homo sapiens) (UniProt Q15910+Q96SW2)
- Sequence (Q15910 whole entry, looked up): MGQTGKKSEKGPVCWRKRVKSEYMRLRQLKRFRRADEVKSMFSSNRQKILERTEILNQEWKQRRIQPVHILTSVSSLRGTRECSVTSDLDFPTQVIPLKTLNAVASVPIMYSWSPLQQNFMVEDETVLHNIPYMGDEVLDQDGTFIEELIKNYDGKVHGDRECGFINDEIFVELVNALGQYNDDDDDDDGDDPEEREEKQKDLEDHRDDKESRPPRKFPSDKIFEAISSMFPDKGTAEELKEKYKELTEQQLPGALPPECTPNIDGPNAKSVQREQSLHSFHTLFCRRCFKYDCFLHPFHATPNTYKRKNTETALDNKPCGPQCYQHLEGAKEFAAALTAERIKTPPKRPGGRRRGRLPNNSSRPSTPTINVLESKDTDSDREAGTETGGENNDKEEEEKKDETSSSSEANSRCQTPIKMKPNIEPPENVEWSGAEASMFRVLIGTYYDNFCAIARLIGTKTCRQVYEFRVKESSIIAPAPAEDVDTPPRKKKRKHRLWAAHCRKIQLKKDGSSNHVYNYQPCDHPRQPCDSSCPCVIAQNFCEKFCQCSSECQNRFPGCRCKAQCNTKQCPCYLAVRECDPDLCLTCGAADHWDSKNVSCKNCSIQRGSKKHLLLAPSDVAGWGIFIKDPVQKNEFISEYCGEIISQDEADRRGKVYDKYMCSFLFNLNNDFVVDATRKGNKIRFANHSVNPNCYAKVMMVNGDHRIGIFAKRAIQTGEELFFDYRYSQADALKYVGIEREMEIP
- Sequence (Q96SW2 whole entry, looked up): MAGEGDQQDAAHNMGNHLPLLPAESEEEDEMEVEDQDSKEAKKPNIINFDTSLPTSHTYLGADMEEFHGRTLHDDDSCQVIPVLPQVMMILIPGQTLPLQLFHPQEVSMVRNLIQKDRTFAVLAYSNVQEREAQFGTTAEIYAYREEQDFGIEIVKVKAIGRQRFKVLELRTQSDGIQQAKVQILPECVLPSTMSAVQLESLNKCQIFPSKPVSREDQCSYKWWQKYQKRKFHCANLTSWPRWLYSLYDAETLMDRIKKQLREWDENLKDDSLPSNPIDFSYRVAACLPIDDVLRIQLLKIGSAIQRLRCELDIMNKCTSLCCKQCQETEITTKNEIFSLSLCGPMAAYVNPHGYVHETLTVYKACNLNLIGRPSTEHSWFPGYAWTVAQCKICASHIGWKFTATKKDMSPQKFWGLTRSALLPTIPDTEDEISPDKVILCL
- experiment notes: Protac activity at CRBN E3 ligase/EZH2 in human 22Rv1 cells assessed as inhibition of H3K27me3 at 0.3 uM incubated for 48 hrs by Western blot analysis
- Format: cell-based
The source made the active and inactive calls. The calls are words filed in the database; no cut-off is given here.
Outcome field: choose from active, inactive

Task item: Hi, sorry to bother you, what did the test record for CCN(c1cc(-c2ccc(C(=O)NCCCCCCCCNC(=O)COc3cccc4c3C(=O)N(C3CCC(=O)NC3=O)C4=O)cc2)cc(C(=O)NCc2c(C)cc(C)[nH]c2=O)c1C)C1CCOCC1 (stereo not drawn) ?
Reply: inactive

Task item: Try CCN(c1cc(-c2ccc(C(=O)NCCCCNc3cccc4c3C(=O)N(C3CCC(=O)NC3=O)C4=O)cc2)cc(C(=O)NCc2c(C)cc(C)[nH]c2=O)c1C)C1CCOCC1 (stereo not drawn) next.
Reply: active

Task item: Try CCN(c1cc(-c2ccc(C(=O)NCCOCCOCCOCCOc3cccc4c3C(=O)N(C3CCC(=O)NC3=O)C4=O)cc2)cc(C(=O)NCc2c(C)cc(C)[nH]c2=O)c1C)C1CCOCC1 (stereo not drawn) next.
Reply: inactive

----------
- tgt: Protein cereblon/Histone-lysine N-methyltransferase EZH2 (Homo sapiens) (UniProt Q15910+Q96SW2)
- experiment notes: Protac activity at CRBN E3 ligase/EZH2 in human 22Rv1 cells assessed as inhibition of H3K27me3 at 3 uM incubated for 48 hrs by Western blot analysis
- Type: cell-based
The source made the active and inactive calls. The calls are words filed in the database; no cut-off is given here.
Outcome field: choose from T for active, F for inactive

Task item: Hi, sorry to bother you, what did the test record for CCN(c1cc(-c2ccc(C(=O)NCCCCCCNC(=O)COc3cccc4c3C(=O)N(C3CCC(=O)NC3=O)C4=O)cc2)cc(C(=O)NCc2c(C)cc(C)[nH]c2=O)c1C)C1CCOCC1 (stereo unspecified) ?
Reply: T

Task item: Try CCN(c1cc(-c2ccc(C(=O)NCCOCCNc3cccc4c3C(=O)N(C3CCC(=O)NC3=O)C4=O)cc2)cc(C(=O)NCc2c(C)cc(C)[nH]c2=O)c1C)C1CCOCC1 (stereo unspecified) next.
Reply: T

Task item: Try CCN(c1cc(-c2ccc(C(=O)NCCCCCCCCNC(=O)COc3cccc4c3C(=O)N(C3CCC(=O)NC3=O)C4=O)cc2)cc(C(=O)NCc2c(C)cc(C)[nH]c2=O)c1C)C1CCOCC1 (stereo unspecified) next.
Reply: T

Task item: Try CCN(c1cc(-c2ccc(C(=O)NCCCCNc3cccc4c3C(=O)N(C3CCC(=O)NC3=O)C4=O)cc2)cc(C(=O)NCc2c(C)cc(C)[nH]c2=O)c1C)C1CCOCC1 (stereo unspecified) next.
Reply: T

Task item: Try CCN(c1cc(-c2ccc(C(=O)NCCOCCOCCOCCOc3cccc4c3C(=O)N(C3CCC(=O)NC3=O)C4=O)cc2)cc(C(=O)NCc2c(C)cc(C)[nH]c2=O)c1C)C1CCOCC1 (stereo unspecified) next.
Reply: T

Task item: Try CCN(c1cc(-c2ccc(C(=O)NCCOCCOCCOc3cccc4c3C(=O)N(C3CCC(=O)NC3=O)C4=O)cc2)cc(C(=O)NCc2c(C)cc(C)[nH]c2=O)c1C)C1CCOCC1 (stereo unspecified) next.
Reply: F

----------
- tgt: von Hippel-Lindau disease tumor suppressor/Histone-lysine N-methyltransferase EZH2 (Homo sapiens) (UniProt Q15910+P40337)
- Sequence (P40337 whole entry, looked up): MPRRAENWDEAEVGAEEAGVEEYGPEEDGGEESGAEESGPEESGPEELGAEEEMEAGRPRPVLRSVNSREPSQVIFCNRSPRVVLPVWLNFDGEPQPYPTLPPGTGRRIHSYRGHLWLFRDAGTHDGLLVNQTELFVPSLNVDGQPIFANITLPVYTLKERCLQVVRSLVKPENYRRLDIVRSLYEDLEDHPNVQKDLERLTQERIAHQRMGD
- Sequence (Q15910 whole entry, looked up): as the sequence (Q15910 whole entry, looked up) above
- experiment notes: Protac activity at VHL/EZH2 in human 22Rv1 cells assessed as reduction in H3K27me3 level at 1 uM incubated for 48 hrs by Western blot analysis
- Assay type: cell-based
Calls of active or inactive are those of the source. The calls are words filed in the database; no cut-off is given here.
Outcome field: choose from active, inactive

Task item: Hi, sorry to bother you, what did the test record for "CCN(c1cc(-c2ccc(OCCOCCOCC(=O)N[C@H](C(=O)N3C[C@H](O)C[C@H]3C(=O)NCc3ccc(-c4scnc4C)cc3)C(C)(C)C)cc2)cc(C(=O)NCc2c(C)cc(C)[nH]c2=O)c1C)C1CCOCC1" ?
Reply: active

Task item: Try "CCN(c1cc(-c2ccc(C(=O)NCCOCCOCCOCCOCC(=O)N[C@H](C(=O)N3C[C@H](O)C[C@H]3C(=O)NCc3ccc(-c4scnc4C)cc3)C(C)(C)C)cc2)cc(C(=O)NCc2c(C)cc(C)[nH]c2=O)c1C)C1CCOCC1" next.
Reply: inactive

Task item: Try "CCN(c1cc(-c2ccc(C(=O)NCCOCCOCCOCC(=O)N[C@H](C(=O)N3C[C@H](O)C[C@H]3C(=O)NCc3ccc(-c4scnc4C)cc3)C(C)(C)C)cc2)cc(C(=O)NCc2c(C)cc(C)[nH]c2=O)c1C)C1CCOCC1" next.
Reply: inactive

Task item: Try "CCN(c1cc(-c2ccc(OCCCOCC(=O)N[C@H](C(=O)N3C[C@H](O)C[C@H]3C(=O)NCc3ccc(-c4scnc4C)cc3)C(C)(C)C)cc2)cc(C(=O)NCc2c(C)cc(C)[nH]c2=O)c1C)C1CCOCC1" next.
Reply: active

Task item: Try "CCN(c1cc(-c2ccc(C(=O)NCCOCCOCC(=O)N[C@H](C(=O)N3C[C@H](O)C[C@H]3C(=O)NCc3ccc(-c4scnc4C)cc3)C(C)(C)C)cc2)cc(C(=O)NCc2c(C)cc(C)[nH]c2=O)c1C)C1CCOCC1" next.
Reply: active
